Target: Runt-related transcription factor 1 (Homo sapiens) + Core-binding factor subunit beta (Homo sapiens) (UniProt Q01196+Q13951)
Sequence (Q01196 whole entry, looked up): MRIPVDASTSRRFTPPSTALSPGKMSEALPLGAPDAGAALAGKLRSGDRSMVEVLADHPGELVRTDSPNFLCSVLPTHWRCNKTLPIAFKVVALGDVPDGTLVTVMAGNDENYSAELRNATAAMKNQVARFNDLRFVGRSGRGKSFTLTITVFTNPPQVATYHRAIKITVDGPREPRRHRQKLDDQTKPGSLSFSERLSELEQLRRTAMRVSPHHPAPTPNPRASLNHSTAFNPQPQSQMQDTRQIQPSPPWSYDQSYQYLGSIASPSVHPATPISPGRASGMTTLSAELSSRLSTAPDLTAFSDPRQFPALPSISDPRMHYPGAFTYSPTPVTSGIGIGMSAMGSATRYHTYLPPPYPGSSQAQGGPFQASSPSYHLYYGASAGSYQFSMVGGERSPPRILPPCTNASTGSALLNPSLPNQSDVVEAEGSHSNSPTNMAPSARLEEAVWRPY
Sequence (Q13951 whole entry, looked up): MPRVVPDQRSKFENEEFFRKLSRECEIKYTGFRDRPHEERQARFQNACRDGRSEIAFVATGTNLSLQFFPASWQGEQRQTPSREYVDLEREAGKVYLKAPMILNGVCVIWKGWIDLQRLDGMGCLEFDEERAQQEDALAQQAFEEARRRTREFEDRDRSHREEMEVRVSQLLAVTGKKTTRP
Assay: qHTS Assay for Compounds Blocking the Interaction Between CBF-beta and RUNX1 for the Treatment of Acute Myeloid Leukemia: SAR for Probe
Conditions: AlphaScreen CBFb-His/RUNX1-biotin binding, biochemical; series mostly up to 136 µM
Inconclusive results are not listed. The source made the active and inactive calls. The call rests on the fitted dose curve; in most records, active means well fitted curve in the direction sought with a large enough effect; inconclusive means small, poorly fitted or top-dose-only effect, or another doubt; inactive means no such curve, though single readings can be large or run the other way.
Recorded Endpoint: Potency

{"Compound": "CCC(=O)Nc1ccc(Cl)cc1C(=O)c1ccc[nH]1", "Result": "inactive"}
{"Compound": "C[C@H](N)C(=O)Nc1ccc(Cl)cc1C(=O)c1ccc[nH]1", "Result": "inactive"}
{"Compound": "NCCC(=O)Nc1ccc(Cl)cc1C(=O)c1ccc[nH]1", "Result": "inactive"}
{"Compound": "NCC(=O)Nc1ccc(Cl)cc1C(=O)c1ccc[nH]1", "Result": "29.6 µM (active)"}
